Reference source: patent US20050209157A1

Listed here: items and their measured CC50 at 24 h.
Experiment: in vitro
Settings: human, WI38 normal lung fibroblast cells, LD50 WI38, WI38 normal lung fibroblast line, MTT, 24 hours with peptide
readout_type: CC50 at 24 h (µg/mL)

CC(C)C[C@H](NC(=O)[C@H](C)NC(=O)[C@H](CC(C)C)NC(=O)[C@H](C)NC(=O)[C@H](CC(C)C)NC(=O)[C@H](CCCCN)NC(=O)[C@H](C)NC(=O)[C@H](CC(C)C)NC(=O)[C@H](CCCCN)NC(=O)[C@H](CCCCN)NC(=O)[C@H](C)NC(=O)[C@H](CC(C)C)NC(=O)[C@H](CCCCN)NC(=O)[C@H](C)NC(=O)[C@H](CC(C)C)NC(=O)[C@H](CCCCN)NC(=O)[C@H](CCCCN)NC(=O)[C@H](C)NC(=O)[C@@H](N)Cc1ccccc1)C(N)=O: 19
CC(C)C[C@H](NC(=O)[C@H](C)NC(=O)[C@H](CC(C)C)NC(=O)[C@H](CCCCN)NC(=O)[C@H](C)NC(=O)[C@H](CC(C)C)NC(=O)[C@H](CCCCN)NC(=O)[C@H](CCCCN)NC(=O)[C@H](C)NC(=O)[C@H](CC(C)C)NC(=O)[C@H](CCCCN)NC(=O)[C@H](C)NC(=O)[C@H](CC(C)C)NC(=O)[C@H](CCCCN)NC(=O)[C@H](CCCCN)NC(=O)[C@H](C)NC(=O)[C@@H](N)Cc1ccccc1)C(N)=O: 8
CC(C)C[C@H](NC(=O)[C@H](C)NC(=O)[C@H](CC(C)C)NC(=O)[C@H](C)NC(=O)[C@H](CC(C)C)NC(=O)[C@H](CCCCN)NC(=O)[C@H](C)NC(=O)[C@H](CC(C)C)NC(=O)[C@H](CCCCN)NC(=O)[C@H](CCCCN)NC(=O)[C@H](C)NC(=O)[C@H](CC(C)C)NC(=O)[C@H](CCCCN)NC(=O)[C@H](C)NC(=O)[C@H](CC(C)C)NC(=O)[C@H](CCCCN)NC(=O)[C@H](CCCCN)NC(=O)[C@H](C)NC(=O)[C@@H](N)C(C)C)C(N)=O: 110
CC(C)C[C@H](NC(=O)[C@H](C)NC(=O)[C@H](CC(C)C)NC(=O)[C@H](CCCCN)NC(=O)[C@H](C)NC(=O)[C@H](CC(C)C)NC(=O)[C@H](CCCCN)NC(=O)[C@H](CCCCN)NC(=O)[C@H](C)NC(=O)[C@H](CC(C)C)NC(=O)[C@H](CCCCN)NC(=O)[C@H](C)NC(=O)[C@H](CC(C)C)NC(=O)[C@H](CCCCN)NC(=O)[C@H](CCCCN)NC(=O)[C@H](C)NC(=O)[C@@H](N)Cc1ccccc1)C(=O)O: 93

----------
Listed here: items and their measured MBC S. aur A.25923.
Tested on: Stapholococcus aureus ATCC 25923
Assay: Antimicrobial assay I, modified protocol (tryptic soy broth), MBC
Details: minimum bactericidal concentration, Table 4
No end group written: not given here.
readout_type: MBC S. aur A.25923 (µg/mL)

FALKALKKAL-NH2 [compound 170]: 150
VALALKALKKALKKLKKALKKAL-NH2 [compound 30]: 40
FALAAKALKKLAKKLKKLAKKAL-NH2 [compound 23]: 30
FALALKKALKALKKAL-NH2 [compound 34]: 40
FALALKLAKKAL-NH2 [compound 167]: 10
VAKLLAKLAKKLL-NH2 [compound 48]: 4
FALALKALKKLAKKLKKLAKKAL-NH2 [compound 25]: 40
FALKALKKLKKALKKAL-NH2 [compound 153]: 5
FAKKLAKLALKLAKL-NH2 [compound 44]: 30
FKLAFKLAKKAFL-NH2 [compound 122]: 25
FAKLLAKALKKAL-NH2 [compound 102]: 25
FAKALAKLAKKLL-NH2 [compound 92]: 15
